TEST NAME: Memantine bioanalysis in plasma after duodenal placement of stellate system (LC-MS/MS)
Assay type: in vivo, beagle dogs
STATED CONDITIONS: male, beagle; memantine in dog plasma; stellate system placed endoscopically in duodenum
TEST READOUT: Tmax (h)

| MOLECULE | UNIT INFO | VALUE |
| --- | --- | --- |
| CC12CC3CC(C)(C1)CC(N)(C3)C2 [memantine] | h | 8 |
